- System: 556581-035-R-J1-PDC spheroids with HUVEC/MSC, viability;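 note: spheroids exposed to compounds for 7 days before readout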
- assay_remarks: Anticancer human tumor 556581-035-R-J1-PDC patient-derived ovarian carcinoma cell line growth inhibition [IpAb]
- measurement_conditions: second compound 1 µM; first compound 0.1 µM; stronger effect = lower value
Strictly below 50% in viability, T/C: fulfilled. Otherwise: not fulfilled.

| molecule | target_system | assigned_category |
| --- | --- | --- |
| C=CCn1c(=O)c2cnc(Nc3ccc(N4CCN(C)CC4)cc3)nc2n1-c1cccc(C(C)(C)O)n1 + CC(C)NCC(C(=O)N1CCN(c2ncnc3c2C(C)CC3O)CC1)c1ccc(Cl)cc1 | 556581-035-R-J1-PDC spheroids with HUVEC/MSC, viability | not fulfilled |
| CC(C)n1nc(-c2ccc3oc(N)nc3c2)c2c(N)ncnc21 + CC(C)NCC(C(=O)N1CCN(c2ncnc3c2C(C)CC3O)CC1)c1ccc(Cl)cc1 | 556581-035-R-J1-PDC spheroids with HUVEC/MSC, viability | fulfilled |
| CCCS(=O)(=O)Nc1ccc(F)c(C(=O)c2c[nH]c3ncc(-c4ccc(Cl)cc4)cc23)c1F + CCN1CCN(Cc2ccc(Nc3ncc(F)c(-c4cc(F)c5nc(C)n(C(C)C)c5c4)n3)nc2)CC1 | 556581-035-R-J1-PDC spheroids with HUVEC/MSC, viability | not fulfilled |
| Cc1nc(NC(=O)N2CCCC2C(N)=O)sc1-c1ccnc(C(C)(C)C(F)(F)F)c1 (stereo not given) + CCN1CCN(Cc2ccc(Nc3ncc(F)c(-c4cc(F)c5nc(C)n(C(C)C)c5c4)n3)nc2)CC1 | 556581-035-R-J1-PDC spheroids with HUVEC/MSC, viability | fulfilled |
| Cn1nccc1Nc1nccc(-c2ccn(C(CO)c3ccc(Cl)c(F)c3)c(=O)c2)n1 (stereo not given) + CCN1CCN(Cc2ccc(Nc3ncc(F)c(-c4cc(F)c5nc(C)n(C(C)C)c5c4)n3)nc2)CC1 | 556581-035-R-J1-PDC spheroids with HUVEC/MSC, viability | not fulfilled |
